Recorded MIC by entry
# Tested on: Staphylococcus aureus (ATCC 29213)
# assay.explanation: MIC determination, microbroth dilution
# Assay type: cell-based
# setup.conditions: ATCC29213; Staphylococcus aureus (ATCC 29213); read-out: MIC S.a.
Counter-ions that a name gives are not always drawn.

Check out these entries, answers already filled in.
CN[C@@H]1[C@H](O)[C@H](NC)[C@H]2O[C@]3(O)[C@H](O[C@@H]2[C@H]1O)O[C@H](C)C[C@@]3(O)CNCC(C)c1ccccc1 (stereo partly shown) | 25 µg/mL
CN[C@@H]1[C@H](O)[C@H](NC)[C@H]2O[C@]3(O)[C@H](O[C@@H]2[C@H]1O)O[C@H](C)C[C@@]3(O)CNCc1ccccn1 | 100 to 200 µg/mL
CN[C@@H]1[C@H](O)[C@H](NC)[C@H]2O[C@]3(O)[C@H](O[C@@H]2[C@H]1O)O[C@H](C)C[C@@]3(O)CNCCc1ccncc1 | > 200 µg/mL

Kindly consider the entry below.
Q. # lookup: MIC of CN[C@@H]1[C@H](O)[C@H](NC)[C@H]2O[C@]3(O)[C@H](O[C@@H]2[C@H]1O)O[C@H](C)C[C@@]3(O)CNCc1cccc(F)c1 [compound 15, Trihydrochloride]
A. 100 µg/mL
